method.notes: in vitro
condition.info: mouse
reported.endpoint: CC50 at 72 h (µM)

                                   molecule  quantitative_result
0  CCCCCCCCCCCCCCC(N)COCc1ccccc1 (stereo not shown) [Compound 12]                 27.7
1  CCCCCCCCCCCCCCC(CO)NCC (stereo not shown) [Compound 5, 2-(Ethylamino)hexadecanol]                 43.4
2  CCCCCCCCCCCCCCCCC(CN)NC(=O)OC(C)(C)C (stereo not shown) [Compound 16]                 24.1
3  CCCCCCCCCCC(N)CO (stereo not shown) [Compound 1]                   14
4  CCCCCCCCCCCCCCC(CNCCCCCC)NC(=O)OC(C)(C)C (stereo not shown) [Compound 17]                  4.2
5  CCCCCCCCCCCCCCC(CO)NCCCCCC (stereo not shown) [Compound 7]                  8.2
6  CCCCCCCCCCCCCCC(CO)NCCCC (stereo not shown) [Compound 6, 2-(Butylamino)hexadecanol]                 63.9
7  CCCCCCCCCCCCCCCCC(CO)NCCCCCC (stereo not shown) [Compound 8]                   26
8  CCCCCCCCCCCCCCC(N)CO (stereo not shown) [Compound 2, 2-Aminohexadecanol]                 77.8
9  CCCCCCCCCCCCCCC(N)CNCCCCCC (stereo not shown) [Compound 20]                    5

###

method.notes: in vitro
condition.info: mouse
Flag rule - CC50 at 72 h less than 40 µM flags yes; the remaining entries get no.

In [3]: df
Out[3]:
                                   molecule  assigned_class
0  CCCCCCCCCCCCCCC(CO)N(CC)CC (stereo not drawn)             yes
1  CCCCCCCCCCC(CO)N(CCCC)CCCC (stereo not drawn)              no
2  CCCCCCCCCCC(CO)NCCCCCC (stereo not drawn)             yes
3  CCCCCCCCCCCCCCCCC(N)CO (stereo not drawn)             yes
4   CCCCCCCCCCCCCCC(N)CN (stereo not drawn)              no
5  CCCCCCCCCCCCCCCCC(N)CN(CC)CC (stereo not drawn)             yes

###

System: Trypanosoma cruzi epimastigotes CL Brener strain clone B5 (CL-B5)
method.notes: Epimastigote susceptibility assay, CL-B5 clone (β-galactosidase activity, CPRG)
Type: cell-based
condition.info: Trypanosoma cruzi; epimastigotes, CL-B5 clone, 72 h at 28 °C, β-galactosidase readout, mean ± SEM
reported.endpoint: IC50 (µM)

                                   compound                               test_target  measure_unit  quantitative_result
0  CCCCCCCCCCCCCCC(CO)NCCCC (stereo not shown)  Trypanosoma cruzi epimastigotes CL Brener strain clone B5 (CL-B5)            µM                  4.2
1  CC1CS(=O)(=O)CCN1/N=C/c1ccc([N+](=O)[O-])o1 (stereo not shown) [NFX, nifurtimox, reference compound]  Trypanosoma cruzi epimastigotes CL Brener strain clone B5 (CL-B5)            µM                 10.4
2  CCCCCCCCCCCCCCC(CO)NCC (stereo not shown) [Compound 5, 2-(Ethylamino)hexadecanol]  Trypanosoma cruzi epimastigotes CL Brener strain clone B5 (CL-B5)            µM                  3.3
3   CCCCCCCCCCCCCCC(N)CO (stereo not shown)  Trypanosoma cruzi epimastigotes CL Brener strain clone B5 (CL-B5)            µM                  3.5

###

Tested on: Trypanosoma cruzi epimastigotes strain MG (MHOM/CO/04/MG)
method.notes: Epimastigote susceptibility assay, MG strain (Trypan Blue and XTT)
Type: cell-based
condition.info: MG strain epimastigotes vs J774.2 macrophages
List of MG Strain SI (Selectivity Index: LC50-macrophages/IC50-epimastigotes) values.
reported.endpoint: MG Strain SI (Selectivity Index: LC50-macrophages/IC50-epimastigotes)

>>> print(df.to_string())
                                    compound                               test_target  result
 0  CCCCCCCCCCC(N)CO (stereo not shown) [Compound 1]  Trypanosoma cruzi epimastigotes strain MG (MHOM/CO/04/MG)     1.0
 1  CCCCCCCCCCC(CO)N(CCCC)CCCC (stereo not shown) [Compound 9]  Trypanosoma cruzi epimastigotes strain MG (MHOM/CO/04/MG)     1.6
 2  CCCCCCCCCCCCCCC(N)CNCCCCCC (stereo not shown) [Compound 20]  Trypanosoma cruzi epimastigotes strain MG (MHOM/CO/04/MG)     0.2
 3  CCCCCCCCCCCCCCC(CO)NCCCCCC (stereo not shown) [Compound 7]  Trypanosoma cruzi epimastigotes strain MG (MHOM/CO/04/MG)     1.3
 4  CCCCCCCCCCCCCCC(N)CO (stereo not shown) [Compound 2, 2-Aminohexadecanol]  Trypanosoma cruzi epimastigotes strain MG (MHOM/CO/04/MG)     3.3
 5  CCCCCCCCCCCCCCC(N)COCc1ccccc1 (stereo not shown) [Compound 12]  Trypanosoma cruzi epimastigotes strain MG (MHOM/CO/04/MG)     0.8
 6  CCCCCCCCCCCCCCC(CNCCCCCC)NC(=O)OC(C)(C)C (stereo not shown) [Compound 17]  Trypanosoma cruzi epimastigotes strain MG (MHOM/CO/04/MG)     0.2
 7  CCCCCCCCCCC(CO)NCCCCCC (stereo not shown) [Compound 4]  Trypanosoma cruzi epimastigotes strain MG (MHOM/CO/04/MG)     1.7
 8  CCCCCCCCCCCCCCC(CO)NCC (stereo not shown) [Compound 5, 2-(Ethylamino)hexadecanol]  Trypanosoma cruzi epimastigotes strain MG (MHOM/CO/04/MG)     2.0
 9  CCCCCCCCCCCCCCC(N)CN (stereo not shown) [Compound 19]  Trypanosoma cruzi epimastigotes strain MG (MHOM/CO/04/MG)     4.1
10  CCCCCCCCCCCCCCCCC(N)CN(CC)CC (stereo not shown) [Compound 21]  Trypanosoma cruzi epimastigotes strain MG (MHOM/CO/04/MG)     0.2
11  CCCCCCCCCCCCCCCCC(N)CO (stereo not shown) [Compound 3]  Trypanosoma cruzi epimastigotes strain MG (MHOM/CO/04/MG)     0.1
12  CCCCCCCCCCCCCCCCC(CN)NC(=O)OC(C)(C)C (stereo not shown) [Compound 16]  Trypanosoma cruzi epimastigotes strain MG (MHOM/CO/04/MG)     1.7
